Origin of measurements: patent US10722520B2

- Target Desc: SHV-1 (Klebsiella pneumoniae)
Output rule met for records whose IC50 is lower than 3 nM, rule not met for records at or above 3 nM.

For orientation, consider the following solved cases.
{"columns": ["Compound", "Assigned Category"],
 "data": [
  ["NCCc1ccn(C2=CC3CN(C2)C(=O)N3OS(=O)(=O)O)n1 (stereo not shown)", "rule not met"],
  ["O=C1N2CC(n3cc(F)cn3)=CC(C2)N1OS(=O)(=O)[O-].[Na+] (stereo not shown) [Example 14, sulfate]", "rule not met"],
  ["O=C1N2CC(n3ccnn3)=C[C@H](C2)N1OS(=O)(=O)O", "rule met"],
  ["O=C1N2CC(n3cc(N4CCNCC4)cn3)=CC(C2)N1OS(=O)(=O)O (stereo not shown)", "rule met"],
  ["NC(=O)CONC(=O)c1ccn(C2=CC3CN(C2)C(=O)N3OS(=O)(=O)[O-])n1.[Na+] (stereo not shown)", "rule not met"]
]}

query: Decide: IC50 of O=C(NCCO)c1ccn(C2=CC3CN(C2)C(=O)N3OS(=O)(=O)[O-])n1.[Na+] (stereo not shown) strictly below 3 nM?
result: rule not met

query: Same question for O=C(CO)Nc1ccn(C2=CC3CN(C2)C(=O)N3OS(=O)(=O)[O-])n1.[Na+] (stereo not shown) please.
result: rule not met
